Data origin, for the record: ChEMBL document CHEMBL2146414

# Test system: Mus musculus
# TEST_PROTOCOL: Antiinflammatory activity in CD1 mouse ear dermatitis model assessed as inhibition of Croton oil-induced ear edema at 0.30 umol administered topically per cm'2 of ear measured after induction of dermatitis relative to untreated control
# Format: functional
Everything with inhibition (INH) lower than 40% is Criterion not met; everything else, including exactly 40%, is Criterion met.

COc1ccc2c(c1)c(CC(=O)O)c(C)n2C(=O)c1ccc(Cl)cc1    Criterion met
C/C=C/c1ccc2oc(-c3ccc(O)cc3OC)cc2c1    Criterion not met
C/C=C/c1ccc2c(c1)[C@H](CO)[C@@H](c1ccc(O)cc1)O2    Criterion not met
C/C=C/c1ccc2oc(-c3ccc(OC)cc3O)cc2c1    Criterion not met
C[C@@H]1[C@H](C)[C@@H](c2ccc(O)cc2)O[C@H]1c1ccc(O)cc1    Criterion met
C/C=C/c1ccc2oc(-c3ccc(O)cc3)cc2c1    Criterion not met
COc1cc(O)ccc1-c1cc2cc(CCCO)ccc2o1    Criterion not met
COc1ccc(-c2cc3cc(CCCO)ccc3o2)c(O)c1    Criterion met

State whether the measured inhibition (INH) reaches 40%, counting equality as reaching it, for `C/C=C/c1ccc2c(c1)[C@@H](C)[C@H](c1ccc(O)cc1)O2`
Criterion met

State whether the measured inhibition (INH) reaches 40%, counting equality as reaching it, for `C/C=C/c1ccc2oc(-c3ccc(O)cc3O)cc2c1`
Criterion not met

###

# TARGET_DESC: Polyunsaturated fatty acid 5-lipoxygenase (Homo sapiens, UniProt P09917)
# Sequence (P09917 whole entry): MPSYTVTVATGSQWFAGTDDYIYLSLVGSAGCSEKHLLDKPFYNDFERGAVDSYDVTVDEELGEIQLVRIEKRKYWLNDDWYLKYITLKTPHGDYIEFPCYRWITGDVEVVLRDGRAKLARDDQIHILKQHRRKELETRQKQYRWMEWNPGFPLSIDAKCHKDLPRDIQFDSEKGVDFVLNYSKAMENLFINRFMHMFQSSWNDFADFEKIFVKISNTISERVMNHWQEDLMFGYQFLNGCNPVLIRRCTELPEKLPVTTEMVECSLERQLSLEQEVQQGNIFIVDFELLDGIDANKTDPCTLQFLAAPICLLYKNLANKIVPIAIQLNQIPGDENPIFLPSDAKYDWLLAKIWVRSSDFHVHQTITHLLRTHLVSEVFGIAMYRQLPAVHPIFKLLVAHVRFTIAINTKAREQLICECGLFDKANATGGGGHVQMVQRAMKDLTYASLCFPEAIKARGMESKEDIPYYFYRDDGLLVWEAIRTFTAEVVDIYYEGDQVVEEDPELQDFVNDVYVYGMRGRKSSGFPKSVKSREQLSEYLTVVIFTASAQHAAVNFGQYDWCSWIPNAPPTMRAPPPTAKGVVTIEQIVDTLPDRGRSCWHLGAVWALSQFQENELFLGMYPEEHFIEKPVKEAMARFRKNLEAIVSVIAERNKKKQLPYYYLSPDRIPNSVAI
# TEST_PROTOCOL: Inhibition of 5-lipoxygenase in human neutrophils assessed as inhibition of LTB4 production
Parameter: IC50. Scope: all listed entries.

Find the measured IC50 of `COc1cc(O)ccc1-c1cc2cc(CCCO)ccc2o1` and report it.
41.4 µM

###

Parameter: IC50. Scope: all listed entries.
# TARGET_DESC: Prostaglandin G/H synthase 2 (Ovis aries)
# Sequence (P79208 whole entry): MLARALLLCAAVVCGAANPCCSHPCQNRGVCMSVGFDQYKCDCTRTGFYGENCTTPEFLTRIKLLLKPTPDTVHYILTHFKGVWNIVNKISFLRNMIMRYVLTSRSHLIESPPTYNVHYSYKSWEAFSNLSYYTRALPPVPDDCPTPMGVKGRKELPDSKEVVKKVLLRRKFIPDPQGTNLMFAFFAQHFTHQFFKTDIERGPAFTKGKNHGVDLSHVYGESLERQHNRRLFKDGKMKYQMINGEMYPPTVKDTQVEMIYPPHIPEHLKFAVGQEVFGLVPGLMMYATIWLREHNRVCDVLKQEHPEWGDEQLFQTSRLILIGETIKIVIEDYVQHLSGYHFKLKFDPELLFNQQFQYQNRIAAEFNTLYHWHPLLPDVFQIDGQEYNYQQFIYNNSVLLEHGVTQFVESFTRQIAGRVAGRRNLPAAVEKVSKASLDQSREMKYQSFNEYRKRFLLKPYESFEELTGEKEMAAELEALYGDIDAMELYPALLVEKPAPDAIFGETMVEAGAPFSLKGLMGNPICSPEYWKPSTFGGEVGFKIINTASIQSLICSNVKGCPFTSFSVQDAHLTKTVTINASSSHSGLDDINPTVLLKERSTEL
# TEST_PROTOCOL: Inhibition of sheep placental COX2 assessed as PGE2 production by enzyme immunoassay

Take a look at these entries with their results.
C/C=C/c1ccc2oc(-c3ccc(OC)cc3O)cc2c1 [RATANIAPHENOL I]    > 50 µM
C/C=C/c1ccc2oc(-c3ccc(O)cc3OC)cc2c1 [RATANIAPHENOL III]    7.6 µM
C/C=C/c1ccc2oc(-c3ccc(O)cc3)c(C)c2c1 [RATANIAPHENOL II]    1.7 µM

State, for Prostaglandin G/H synthase 2 (Ovis aries), measured IC50 of the compound listed here: `C[C@@H]1[C@H](C)[C@@H](c2ccc(O)cc2)O[C@H]1c1ccc(O)cc1`
> 50 µM

State, for Prostaglandin G/H synthase 2 (Ovis aries), measured IC50 of the compound listed here: `C[C@@H]1[C@H](C)[C@@H](c2ccc(O)cc2)O[C@@H]1c1ccc(O)cc1`
> 50 µM

State, for Prostaglandin G/H synthase 2 (Ovis aries), measured IC50 of the compound listed here: `COc1cc(O)ccc1-c1cc2cc(CCCO)ccc2o1`
> 50 µM

State, for Prostaglandin G/H synthase 2 (Ovis aries), measured IC50 of the compound listed here: `COc1ccc(-c2cc3cc(CCCO)ccc3o2)c(O)c1`
> 50 µM

State, for Prostaglandin G/H synthase 2 (Ovis aries), measured IC50 of the compound listed here: `C/C=C/c1ccc2c(c1)[C@H](CO)[C@@H](c1ccc(O)cc1)O2`
> 50 µM

State, for Prostaglandin G/H synthase 2 (Ovis aries), measured IC50 of the compound listed here: `C/C=C/c1ccc2oc(-c3ccc(O)cc3O)cc2c1`
7.1 µM

State, for Prostaglandin G/H synthase 2 (Ovis aries), measured IC50 of the compound listed here: `C/C=C/c1ccc2c(c1)[C@@H](C)[C@H](c1ccc(O)cc1)O2`
> 50 µM

State, for Prostaglandin G/H synthase 2 (Ovis aries), measured IC50 of the compound listed here: `C/C=C/c1ccc2oc(-c3ccc(O)cc3)cc2c1`
2 µM

###

# TARGET_DESC: Prostaglandin G/H synthase 1 (Ovis aries)
# Sequence (P05979 whole entry): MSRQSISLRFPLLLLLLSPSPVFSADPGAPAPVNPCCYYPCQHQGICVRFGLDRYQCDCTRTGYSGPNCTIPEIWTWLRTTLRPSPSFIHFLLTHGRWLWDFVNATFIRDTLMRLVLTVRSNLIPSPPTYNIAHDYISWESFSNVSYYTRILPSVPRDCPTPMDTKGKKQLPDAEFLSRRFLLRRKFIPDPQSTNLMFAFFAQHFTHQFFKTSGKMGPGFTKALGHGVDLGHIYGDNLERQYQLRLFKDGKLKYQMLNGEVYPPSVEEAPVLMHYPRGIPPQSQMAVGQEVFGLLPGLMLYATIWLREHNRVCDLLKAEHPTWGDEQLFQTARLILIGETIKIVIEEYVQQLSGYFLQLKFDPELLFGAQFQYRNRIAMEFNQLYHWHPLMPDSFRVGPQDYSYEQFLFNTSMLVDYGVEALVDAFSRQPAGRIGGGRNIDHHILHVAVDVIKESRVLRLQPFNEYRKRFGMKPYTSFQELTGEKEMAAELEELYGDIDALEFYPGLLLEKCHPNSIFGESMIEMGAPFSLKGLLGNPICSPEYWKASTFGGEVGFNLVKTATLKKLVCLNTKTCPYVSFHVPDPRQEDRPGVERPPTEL
# TEST_PROTOCOL: Inhibition of ram seminal vesicle COX1 assessed as PGE2 production by enzyme immunoassay
VALUE_KIND: pIC50
A value of pIC50 is the negative decimal logarithm of a concentration given in moles per litre.

Take a look at these entries with their results.
C/C=C/c1ccc2oc(-c3ccc(O)cc3)cc2c1    4.74
C/C=C/c1ccc2oc(-c3ccc(O)cc3OC)cc2c1    5.57

Find the measured pIC50 of `C/C=C/c1ccc2oc(-c3ccc(O)cc3O)cc2c1` and report it.
5.42

###

# TARGET_DESC: Prostaglandin E synthase (Homo sapiens, UniProt O14684)
# Sequence (O14684 whole entry): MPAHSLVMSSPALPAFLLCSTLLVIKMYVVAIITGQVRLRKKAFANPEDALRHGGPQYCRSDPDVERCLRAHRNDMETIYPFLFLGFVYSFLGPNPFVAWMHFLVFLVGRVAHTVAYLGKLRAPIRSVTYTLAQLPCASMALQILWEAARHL
# TEST_PROTOCOL: Inhibition of mPGES1 in IL-1beta treated human A549 cell microsomal membrane assessed as inhibition of PGE2 formation incubated for 15 mins before addition of PGH2 by RP-HPLC method
Parameter: IC50. Scope: all listed entries.

Find the measured IC50 of `COc1ccc(-c2cc3cc(CCCO)ccc3o2)c(O)c1` and report it.
42 µM

###

# TARGET_DESC: UniProtKB P09917
# TEST_PROTOCOL: Inhibition of 5-lipoxygenase in human neutrophils assessed as inhibition of LTB4 production
pIC50: −log10 of the molar value.
Parameter: pIC50. Scope: all listed entries.

Find the measured pIC50 of `C/C=C/c1ccc2oc(-c3ccc(OC)cc3O)cc2c1` and report it.
< 4.30

###

# TARGET_DESC: Prostaglandin E synthase (Homo sapiens, UniProt O14684)
# TEST_PROTOCOL: Inhibition of mPGES1 in IL-1beta treated human A549 cell microsomal membrane assessed as inhibition of PGE2 formation incubated for 15 mins before addition of PGH2 by RP-HPLC method
VALUE_KIND: IC50

Take a look at these entries with their results.
C/C=C/c1ccc2oc(-c3ccc(O)cc3)c(C)c2c1 [RATANIAPHENOL II]    11 µM
COc1cc(O)ccc1-c1cc2cc(CCCO)ccc2o1    > 50 µM
C/C=C/c1ccc2oc(-c3ccc(OC)cc3O)cc2c1 [RATANIAPHENOL I]    13 µM

State, for Prostaglandin E synthase (Homo sapiens, UniProt O14684), measured IC50 of the compound listed here: `C/C=C/c1ccc2c(c1)[C@@H](C)[C@H](c1ccc(O)cc1)O2`
19.5 µM

###

# TARGET_DESC: Polyunsaturated fatty acid 5-lipoxygenase (Homo sapiens, UniProt P09917)
# TEST_PROTOCOL: Inhibition of 5-lipoxygenase in human neutrophils assessed as inhibition of LTB4 production
Parameter: IC50. Scope: all listed entries.

C/C=C/c1ccc2oc(-c3ccc(O)cc3)cc2c1    > 50 µM
C/C=C/c1ccc2c(c1)[C@@H](C)[C@H](c1ccc(O)cc1)O2    18.4 µM
C/C=C/c1ccc2oc(-c3ccc(O)cc3)c(C)c2c1    > 50 µM
C/C=C/c1ccc2c(c1)[C@H](CO)[C@@H](c1ccc(O)cc1)O2    > 50 µM

State, for Polyunsaturated fatty acid 5-lipoxygenase (Homo sapiens, UniProt P09917), measured IC50 of the compound listed here: `C/C=C/c1ccc2oc(-c3ccc(O)cc3O)cc2c1`
> 50 µM

State, for Polyunsaturated fatty acid 5-lipoxygenase (Homo sapiens, UniProt P09917), measured IC50 of the compound listed here: `C[C@@H]1[C@H](C)[C@@H](c2ccc(O)cc2)O[C@H]1c1ccc(O)cc1`
> 50 µM
